Catalogue of molecules with associated cytotoxicity at 72 h, 33.33 µM
experimental protocol: In vitro cytotoxicity by MTT assay, HEK 293
Type: cell-based, human
applied conditions: human, HEK 293 cells, 33.33 μM, read-out: % cytotoxicity (100 − % cell survival) of HEK 293 cell line
Reply numerically in %, unit not repeated.

*Q* Which cytotoxicity at 72 h, 33.33 µM is listed for CC(=O)Nc1ccc(S(=O)(=O)Nc2nnc(S(=O)(=O)NC(=O)c3ccccc3O)s2)cc1 [Compound 6d] ?
*A* 40.7

*Q* One more molecule: Nc1ccc(S(=O)(=O)Nc2nnc(S(=O)(=O)NC(=O)c3ccc(Cl)cc3)s2)cc1 [Compound 7g]
*A* 40.3

*Q* One more molecule: O=C(NS(=O)(=O)c1nnc(N=Cc2ccc(Cl)cc2)s1)c1ccccc1 [Compound 9b]
*A* 38.9

*Q* One more molecule: O=C(NS(=O)(=O)c1nnc(N=Cc2ccccc2O)s1)c1ccccc1 [Compound 9f]
*A* 39.8
